Measured LLEAT accompanies every entry in the list below.
target: p97-N (Homo sapiens)
Construct: Constructs of p97-N (aa 21-199, N-terminal 3 C protease-cleavable His6-tag); His6 (3C protease-cleavable) (N); made in house
Sequence (P55072 21-199): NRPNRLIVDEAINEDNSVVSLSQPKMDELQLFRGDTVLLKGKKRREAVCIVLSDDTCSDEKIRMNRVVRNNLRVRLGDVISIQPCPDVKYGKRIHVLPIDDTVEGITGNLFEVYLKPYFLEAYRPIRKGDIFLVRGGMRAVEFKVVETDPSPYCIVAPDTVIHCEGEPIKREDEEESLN
assay summary: BLI dose-response binding to the isolated N-domain of p97
measurement context: based on KD for p97-N, heavy atom count and clogP
Could you respond with only the numeric value?

Some solved cases for reference:
[[record]]
compound = "Cc1ccc(-c2cc(N)n[nH]2)o1 [TROLL8]"
property = "LLEAT"
meas_value = 0.40

[[record]]
compound = "O=C(O)Cc1cc2ccccc2[nH]1 [TROLL6]"
property = "LLEAT"
meas_value = 0.30

[[record]]
compound = "Nc1[nH]ncc1-c1ccc(Cl)cc1 [TROLL18]"
property = "LLEAT"
meas_value = 0.27

[[record]]
compound = "NCC(O)c1ccc(Br)cc1 (centres unmarked) [TROLL2]"
property = "LLEAT"
meas_value = 0.47

[[record]]
compound = "Cc1ccc(-c2csc3nc(CO)cn23)cc1 [TROLL14]"
property = "LLEAT"
meas_value = 0.16

[[record]]
compound = "Nc1nc2c(s1)CN(Cc1ccccc1)CC2 [VIK20]"
property = "LLEAT"
meas_value = 0.27

[[record]]
compound = "Cc1oc(CN)nc1-c1ccccc1 [TROLL12]"
property = "LLEAT"
meas_value = 0.34


Then there is this compound:
What measured LLEAT is associated with NCC(O)c1ccc(Cl)cc1 (centres unmarked) [TROLL7] on p97-N (Homo sapiens)? 0.42

----------
target: p97-N (Homo sapiens)
Construct: Constructs of p97-N (aa 21-199, N-terminal 3 C protease-cleavable His6-tag); His6 (3C protease-cleavable) (N); made in house
assay summary: BLI dose-response binding to the isolated N-domain of p97
measurement context: based on sensorgrams from measurements with p97-N; about 1.0 or above = 1:1 binder
Mark Condition met for reported ScoreBLI of 0.9 or greater; mark Condition not met for anything smaller.

See these solved cases before continuing.
[[record]]
compound = "Cc1oc(CN)nc1-c1ccccc1 [TROLL12]"
assigned_category = "Condition not met"

[[record]]
compound = "Cc1ccc(-c2csc3nc(CO)cn23)cc1 [TROLL14]"
assigned_category = "Condition met"

[[record]]
compound = "O=C(O)Cc1cc2ccccc2[nH]1 [TROLL6]"
assigned_category = "Condition not met"

[[record]]
compound = "NCC(O)c1ccc(Br)cc1 (centres unmarked) [TROLL2]"
assigned_category = "Condition not met"


Assess whether reported ScoreBLI for Nc1nc2c(s1)CN(Cc1ccccc1)CC2 [VIK20] sits at 0.9 or higher. Condition met

----------
target: p97-ND1 (Homo sapiens)
Construct: His6 (TEV protease-cleavable) (N); made in house
Sequence (P55072 2-481): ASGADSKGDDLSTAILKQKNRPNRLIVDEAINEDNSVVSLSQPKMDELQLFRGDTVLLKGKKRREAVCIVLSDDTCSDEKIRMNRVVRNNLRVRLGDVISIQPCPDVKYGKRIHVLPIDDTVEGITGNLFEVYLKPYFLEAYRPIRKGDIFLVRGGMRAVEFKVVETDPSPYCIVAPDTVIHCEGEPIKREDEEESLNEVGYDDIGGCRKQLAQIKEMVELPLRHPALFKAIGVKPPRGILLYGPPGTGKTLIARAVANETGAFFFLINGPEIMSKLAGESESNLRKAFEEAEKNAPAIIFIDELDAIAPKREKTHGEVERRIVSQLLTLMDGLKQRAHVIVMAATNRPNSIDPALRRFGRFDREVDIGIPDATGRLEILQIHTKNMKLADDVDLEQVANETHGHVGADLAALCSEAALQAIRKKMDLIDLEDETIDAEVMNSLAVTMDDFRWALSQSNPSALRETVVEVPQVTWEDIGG
assay summary: STD-NMR with p97-ND1 in the presence of 500 µM ADP
Format: binding
Parameters: key: STD effect = Idiff/Ioff × 100 (%)
measurement context: Supplementary Table 3
property: mean STD-effect (ND1)

[[record]]
compound = "Nc1nc2c(s1)CN(Cc1ccccc1)CC2"
meas_value = 18.3

[[record]]
compound = "NCC(O)c1ccc(Cl)cc1 (centres unmarked)"
meas_value = 34.5

[[record]]
compound = "NCC(O)c1ccc(Br)cc1 (centres unmarked)"
meas_value = 36.0


// query mean STD-effect (ND1) value for entry Cc1ccc(-c2cc(N)n[nH]2)o1 33.1

// query mean STD-effect (ND1) value for entry O=C(O)Cc1cc2ccccc2[nH]1 66.5

// query mean STD-effect (ND1) value for entry Nc1[nH]ncc1-c1ccc(Cl)cc1 54.3

// query mean STD-effect (ND1) value for entry Cc1ccc(-c2csc3nc(CO)cn23)cc1 55.4

// query mean STD-effect (ND1) value for entry Cc1oc(CN)nc1-c1ccccc1 44.5
